B1: Hairpin Ribozyme (parent)
chain: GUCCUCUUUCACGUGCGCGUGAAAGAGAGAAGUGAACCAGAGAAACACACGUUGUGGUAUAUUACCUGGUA

- Variants of: B1
- PROTOCOL_DETAILS: self-cleavage, relative activity (ratio to wild type); higher = more cleavage; co-transcriptional
RECORDED_METRIC: self-cleavage

INSERT INTO measurements (mutation_descriptor, recorded_metric, assay_result) VALUES
  ('C6G G69A', 'self-cleavage', 0.251),
  ('C16A G29C', 'self-cleavage', 0.0987),
  ('C4G G34A', 'self-cleavage', 0.5),
  ('G17C U33A', 'self-cleavage', 0.149),
  ('A23G U52C', 'self-cleavage', 0.713),
  ('A31G C65U', 'self-cleavage', 0.252),
  ('C4A A44C', 'self-cleavage', 0.0924),
  ('A22C A41G', 'self-cleavage', 0.704),
  ('C3G A24G', 'self-cleavage', 0.294),
  ('U2A A71G', 'self-cleavage', 0.405),
  ('G34U A71U', 'self-cleavage', 1.36),
  ('U14G U70G', 'self-cleavage', 0.659),
  ('U5C G17A', 'self-cleavage', 0.644),
  ('C6G A64C', 'self-cleavage', 0.123),
  ('C46A A64U', 'self-cleavage', 0.255),
  ('C10A G21A', 'self-cleavage', 0.856),
  ('C16G C18G', 'self-cleavage', 0.863),
  ('A22U G57U', 'self-cleavage', 0.366),
  ('G13U G54A', 'self-cleavage', 0.518),
  ('A11U C46A', 'self-cleavage', 0.16),
  ('A45G U63G', 'self-cleavage', 0.226),
  ('C3U G42C', 'self-cleavage', 0.218);
